Exercise: for every item that follows, state its recorded Dmax.
Target: IRAK4 (Homo sapiens)
Construct: endogenous in cells; host or cells: Karpas299
Sequence (Q9NWZ3 1-460): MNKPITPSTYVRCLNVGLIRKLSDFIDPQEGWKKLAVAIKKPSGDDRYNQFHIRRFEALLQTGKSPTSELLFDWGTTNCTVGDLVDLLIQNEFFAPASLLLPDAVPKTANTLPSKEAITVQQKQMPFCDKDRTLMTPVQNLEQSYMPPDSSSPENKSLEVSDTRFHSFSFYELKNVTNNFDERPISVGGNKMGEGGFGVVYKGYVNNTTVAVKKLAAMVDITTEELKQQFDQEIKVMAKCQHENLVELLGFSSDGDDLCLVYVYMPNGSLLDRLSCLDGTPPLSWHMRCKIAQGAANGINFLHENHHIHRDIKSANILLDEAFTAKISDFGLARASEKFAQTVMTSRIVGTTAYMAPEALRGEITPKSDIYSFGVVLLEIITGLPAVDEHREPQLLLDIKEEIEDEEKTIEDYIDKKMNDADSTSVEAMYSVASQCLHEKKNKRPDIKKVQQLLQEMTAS
Experiment: IRAK4 Degradation Assay (Karpas299, HTRF/TR-FRET)
Format: cell-based
Conditions: Karpas-299 cells, 5 h treatment; maximum percentage of degradation; read-out: IRAK4 in Karpas-299 (5 h) Dmax (%)
Answer shape: numeric part, then the unit.

Recorded Dmax, per entry:
{"columns": ["compound", "recorded-value"],
 "data": [
  ["NC(=O)c1nn([C@H]2CC[C@H](N3CCN(C(=O)[C@@H]4CCN(c5cc(F)c([C@H]6CCC(=O)NC6=O)c(F)c5)C4)CC3)CC2)cc1NC(=O)c1coc(-c2ccnc(NCC(F)(F)F)c2)n1 [Example 12]", "97%"],
  ["CC(C)(O)c1cc2nn([C@H]3CC[C@H](N4CCN([C@H]5C[C@H](c6ccc(N[C@H]7CCC(=O)NC7=O)cc6)C5)CC4)CC3)cc2cc1NC(=O)c1ccc2cc(C#N)cnn12 [Example 274]", "97%"]
]}

Can you give me Dmax for all of these, one by one?
1. CC(C)(O)c1cc2nn(C3CCN(C4CCN(C(=O)[C@@H]5CCN(c6cc(F)c([C@H]7CCC(=O)NC7=O)c(F)c6)C5)CC4)CC3)cc2cc1NC(=O)c1ccc2cc(C#N)cnn12 [Example 347]
2. CC(C)(O)c1cc2nn(C3CCN(C4CCN(C(=O)C5CN(c6cc(F)c([C@H]7CCC(=O)NC7=O)c(F)c6)C5)CC4)CC3)cc2cc1NC(=O)c1ccc2cc(C#N)cnn12 [Example 346]
3. COc1cc2nn([C@H]3CC[C@H](CN4CCN(C(=O)[C@H]5CCN(c6ccc(N7CCC(=O)NC7=O)cc6)C5)CC4)CC3)cc2cc1NC(=O)c1cccn(C2CC2)c1=O [Example 34]

Reply:
["93%", "93%", "81%"]
